- Study target: UniProt:P13569
- Test method notes: Cell-based YFP assay
- Parameters: expressed in transfected cells; host or cells: CHO-K1 (Chinese hamster ovary)
- Condition label: CHO-K1 cells expressing human wild type-CFTR and YFP-H148Q/I152L; forskolin 20 μM = 100% activity; read-out: Cell-based YFP Assay (EC50) Concentration Range
Metric: EC50

Study these solved cases before continuing.
CCOc1ccc(NC(=O)c2cc3nccc(-c4ccc(OC)cc4)n3n2)cc1	200 to 2000 nM
COc1ccc(-c2ccnc3cc(C(=O)Nc4ccc(C(=O)OCCCN5CCN(C)CC5)cn4)nn23)cc1OC	< 200 nM

query: // lookup EC50 for `COc1ccc(-c2ccnc3cc(C(=O)Nc4ccc(C(=O)OCCCN5CCOCC5)c(Cl)c4)nn23)cc1OC`
result: ≥ 2000 nM

query: // lookup EC50 for `COc1ccc(-c2ccnc3cc(C(=O)Nc4ccc(C(=O)N5CCN(C)CC5)cc4)nn23)cc1OC`
result: 200 to 2000 nM

----------
Item-by-item account of inhibition at 10 µM
- Study target: Human recombinant PDE4D2 (Homo sapiens)
- Construct: purchased BPS Bioscience; host or cells: insect Sf9 cells
- Sequence (Q08499 303-809 limits assumed): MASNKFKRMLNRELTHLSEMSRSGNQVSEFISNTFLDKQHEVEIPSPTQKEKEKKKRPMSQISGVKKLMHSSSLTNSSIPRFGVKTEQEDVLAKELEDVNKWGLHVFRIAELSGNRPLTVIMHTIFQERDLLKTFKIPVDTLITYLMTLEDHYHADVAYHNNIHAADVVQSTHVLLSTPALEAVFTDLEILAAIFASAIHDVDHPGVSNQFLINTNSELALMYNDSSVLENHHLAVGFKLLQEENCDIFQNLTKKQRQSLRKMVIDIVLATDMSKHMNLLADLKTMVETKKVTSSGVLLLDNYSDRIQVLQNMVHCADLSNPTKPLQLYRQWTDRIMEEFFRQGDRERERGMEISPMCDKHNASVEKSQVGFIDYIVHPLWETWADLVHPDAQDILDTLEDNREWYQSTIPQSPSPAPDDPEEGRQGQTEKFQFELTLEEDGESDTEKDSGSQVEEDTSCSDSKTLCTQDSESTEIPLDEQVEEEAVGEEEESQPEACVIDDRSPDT
- Test method notes: Human phosphodiesterase 4 (PDE4) inhibition, PDE4D2
- Assay type: biochemical
- Condition label: read-out: % inhibition range at 10 uM PDE4D2; 10 uM test compound
- Experimental: […] Human recombinant PDE4A1A, PDE4B 1, PDE4C1 and PDE4D2 are respectively expressed in each host cell (insect Sf9 cells, BPS Bioscience). Preincubation of 10 μM test compounds or vehicle was proceeded with 20 ng/ml PDE4A1A or 4 ng/ml PDE4B 1 or 8 ng/ml PDE4C1 or 5 ng/ml PDE4D2 enzyme in Tris-HCl buffer pH 7.2 for 15 minutes at 25° C. […] The amount of complex formed is determined by reading spectrofluorimetrical signal at 470 nm/525 nm.

COC(=O)c1ccc(NC(=O)c2cc3nccc(-c4ccc(OC)c(OC)c4)n3n2)c(F)c1	> 80%
COc1ccc(-c2ccnc3cc(C(=O)Nc4ccc(N)cc4)nn23)cc1OC	> 80%
COC(=O)c1ccccc1NC(=O)c1cc2nccc(-c3ccc(OC)c(OC)c3)n2n1	< 50%
COc1ccc(-c2ccnc3cc(C(=O)Nc4ccc(OCCN5CCOCC5)cc4)nn23)cc1OC	> 80%
COc1ccc(-c2ccnc3cc(C(=O)N[C@H]4CC[C@H](C(=O)OC)CC4)nn23)cc1OC	> 80%
COc1ccc(-c2ccnc3cc(C(=O)Nc4ccc(C(=O)N5CCN(C)CC5)cc4)nn23)cc1OC	> 80%

query: // lookup inhibition at 10 µM for `COc1ccc(-c2ccnc3cc(C(=O)NC45CCC(C(=O)N6CCN(C)CC6)(CC4)CC5)nn23)cc1OC`
result: > 80%

query: // lookup inhibition at 10 µM for `CCOc1ccc(C(=O)Nc2cc3nccc(-c4ccc(OC)c(OC)c4)n3n2)cc1`
result: 50 to 80%

----------
- Study target: Human recombinant PDE4B 1 (Homo sapiens, UniProt Q07343)
- Construct: purchased BPS Bioscience; host or cells: insect Sf9 cells
- Sequence (Q07343 whole entry): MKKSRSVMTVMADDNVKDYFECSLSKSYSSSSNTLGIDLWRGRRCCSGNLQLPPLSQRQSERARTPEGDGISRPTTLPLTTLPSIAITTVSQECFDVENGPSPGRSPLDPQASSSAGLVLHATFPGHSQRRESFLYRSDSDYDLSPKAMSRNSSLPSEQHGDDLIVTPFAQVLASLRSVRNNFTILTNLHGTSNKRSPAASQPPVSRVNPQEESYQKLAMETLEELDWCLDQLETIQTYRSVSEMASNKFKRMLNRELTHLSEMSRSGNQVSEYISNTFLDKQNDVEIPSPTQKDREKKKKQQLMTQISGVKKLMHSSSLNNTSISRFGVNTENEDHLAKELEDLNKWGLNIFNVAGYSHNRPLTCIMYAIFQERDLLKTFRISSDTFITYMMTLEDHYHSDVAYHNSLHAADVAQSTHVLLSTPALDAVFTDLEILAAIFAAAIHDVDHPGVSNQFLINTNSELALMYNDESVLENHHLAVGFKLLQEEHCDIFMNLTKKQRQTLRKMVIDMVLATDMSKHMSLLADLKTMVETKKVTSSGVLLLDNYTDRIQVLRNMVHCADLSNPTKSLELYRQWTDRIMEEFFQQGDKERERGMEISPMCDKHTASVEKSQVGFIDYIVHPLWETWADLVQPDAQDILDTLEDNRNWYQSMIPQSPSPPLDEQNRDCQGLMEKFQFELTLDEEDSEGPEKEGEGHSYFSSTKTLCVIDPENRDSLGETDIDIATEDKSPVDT
- Test method notes: Human phosphodiesterase 4 (PDE4) inhibition, PDE4B 1
- Type: biochemical
- Condition label: read-out: % inhibition range at 10 uM PDE4B1; 10 uM test compound
Metric: inhibition at 10 µM

Study these solved cases before continuing.
COC(=O)C(=Cc1ccccc1)NC(=O)c1cc2nccc(-c3ccc(OC)c(OC)c3)n2n1	> 80%
COc1ccc(-c2ccnc3cc(NC(=O)Nc4ccc(C(=O)N5CCOCC5)cc4)nn23)cc1OC	> 80%
CCOc1ccc(NC(=O)c2cc3nccc(-c4ccc(OC)nc4)n3n2)cc1	50 to 80%
COc1ccc(-c2ccnc3cc(C(=O)Nc4ccc(OCCN5CCOCC5)cc4)nn23)cc1OC	> 80%
COc1ccc(-c2ccnc3cc(C(=O)Nc4ccc(N)cc4)nn23)cc1OC	> 80%

query: // lookup inhibition at 10 µM for `COC(=O)c1ccc(NC(=O)c2cc3nccc(-c4ccc(OC)c(F)c4)n3n2)cc1`
result: 50 to 80%

query: // lookup inhibition at 10 µM for `COc1ccc(-c2ccnc3cc(C(=O)Nc4ccc(N5CCOCC5)cn4)nn23)cc1OC`
result: > 80%

query: // lookup inhibition at 10 µM for `COc1ccc(-c2ccnc3cc(C(=O)NC45CCC(C(=O)N6CCN(C)CC6)(CC4)CC5)nn23)cc1OC`
result: > 80%

----------
- Test method notes: Phosphate-buffered saline (PBS) solubility of compounds
- Format: physicochemical
- Condition label: aqueous buffer, thermodynamic from solid, PBS pH 7.5, 0.5 mg/mL, vortexed 90 min, filtered, LC-MS/MS, read-out: Solubility Range
Item-by-item account of solubility at 90 min

query: // lookup solubility at 90 min for COC(=O)c1ccc2c(c1)CN(C(=O)c1cc3nccc(-c4ccc(OC)c(OC)c4)n3n1)CC2 [Compound 131]
result: < 0.1 µg/mL

query: // lookup solubility at 90 min for COc1ccc(-c2ccnc3cc(C(=O)Nc4ccc(C(=O)OCCCN5CCOCC5)cn4)nn23)cc1OC [Compound 142]
result: < 0.1 µg/mL

query: // lookup solubility at 90 min for COc1ccc(-c2ccnc3cc(C(=O)N4CCN(Cc5c(F)cccc5F)CC4)nn23)cc1OC [Compound 212]
result: 0.1 to 10 µg/mL

query: // lookup solubility at 90 min for COc1ccc(-c2ccnc3cc(C(=O)N[C@H]4CC[C@@H](C(=O)N5CCN(C(=O)OC(C)(C)C)CC5)CC4)nn23)cc1OC [Compound 73]
result: 0.1 to 10 µg/mL

query: // lookup solubility at 90 min for COc1ccc(-c2ccnc3cc(C(=O)Nc4ccc(C(=O)NCCN5CCN(C)CC5)cc4)nn23)cc1OC [Compound 178]
result: > 10 µg/mL

query: // lookup solubility at 90 min for COC(=O)c1ccc(NC(=O)c2cc3nccc(-c4ccc(OC)c(OC)c4)n3n2)cc1F [Compound 141]
result: < 0.1 µg/mL

----------
Item-by-item account of EC50
- Study target: human wild type-CFTR (Homo sapiens)
- Sequence (P13569 whole entry): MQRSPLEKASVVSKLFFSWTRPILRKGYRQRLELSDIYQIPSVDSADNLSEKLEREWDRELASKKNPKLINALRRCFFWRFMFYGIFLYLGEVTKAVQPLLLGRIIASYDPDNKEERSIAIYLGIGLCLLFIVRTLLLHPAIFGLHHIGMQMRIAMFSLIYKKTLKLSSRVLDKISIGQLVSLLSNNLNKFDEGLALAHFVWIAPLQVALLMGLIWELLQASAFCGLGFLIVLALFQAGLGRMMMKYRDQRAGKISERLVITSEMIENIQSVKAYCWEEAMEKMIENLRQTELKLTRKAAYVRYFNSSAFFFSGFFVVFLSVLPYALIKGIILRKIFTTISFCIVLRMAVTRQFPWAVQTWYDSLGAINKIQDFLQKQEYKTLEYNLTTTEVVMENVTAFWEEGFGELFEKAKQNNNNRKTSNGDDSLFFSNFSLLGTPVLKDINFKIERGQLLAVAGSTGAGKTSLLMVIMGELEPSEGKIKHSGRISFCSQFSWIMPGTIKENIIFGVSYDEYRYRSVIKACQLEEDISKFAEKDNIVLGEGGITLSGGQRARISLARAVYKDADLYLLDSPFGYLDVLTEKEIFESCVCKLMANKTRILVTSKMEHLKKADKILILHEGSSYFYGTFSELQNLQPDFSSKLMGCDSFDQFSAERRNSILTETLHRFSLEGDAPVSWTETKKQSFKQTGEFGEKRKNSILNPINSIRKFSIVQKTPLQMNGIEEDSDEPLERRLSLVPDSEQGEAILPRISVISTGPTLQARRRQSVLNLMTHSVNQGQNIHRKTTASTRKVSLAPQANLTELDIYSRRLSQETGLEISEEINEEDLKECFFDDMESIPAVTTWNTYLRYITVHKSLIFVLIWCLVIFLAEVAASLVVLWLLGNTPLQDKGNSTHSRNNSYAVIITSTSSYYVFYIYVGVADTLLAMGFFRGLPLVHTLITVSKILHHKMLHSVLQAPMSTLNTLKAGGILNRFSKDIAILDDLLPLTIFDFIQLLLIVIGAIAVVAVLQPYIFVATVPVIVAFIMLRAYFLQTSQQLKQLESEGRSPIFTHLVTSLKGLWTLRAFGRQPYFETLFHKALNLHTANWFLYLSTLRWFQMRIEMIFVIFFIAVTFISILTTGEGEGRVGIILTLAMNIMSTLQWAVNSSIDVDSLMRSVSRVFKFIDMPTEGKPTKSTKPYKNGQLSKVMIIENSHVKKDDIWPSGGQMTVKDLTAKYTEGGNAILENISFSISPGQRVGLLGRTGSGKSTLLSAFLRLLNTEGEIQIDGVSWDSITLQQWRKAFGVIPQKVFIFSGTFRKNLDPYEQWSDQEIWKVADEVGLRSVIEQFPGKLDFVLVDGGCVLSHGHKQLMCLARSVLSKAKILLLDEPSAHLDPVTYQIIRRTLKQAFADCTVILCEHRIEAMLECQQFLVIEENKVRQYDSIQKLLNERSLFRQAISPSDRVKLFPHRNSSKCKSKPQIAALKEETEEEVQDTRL
- Test method notes: Cell-based YFP assay
- Design: expressed in transfected cells; host or cells: CHO-K1 (Chinese hamster ovary)
- Condition label: CHO-K1 cells expressing human wild type-CFTR and YFP-H148Q/I152L; forskolin 20 μM = 100% activity; read-out: Cell-based YFP Assay (EC50) Concentration Range

Study these solved cases before continuing.
COc1ccc(-c2ccnc3cc(C(=O)Nc4ccccc4)nn23)cc1OC [Compound 1]	< 200 nM
COc1ccc(-c2ccnc3cc(C(=O)NC45CC(NC(=O)N6CCOCC6)(C4)C5)nn23)cc1OC [Compound 138]	≥ 2000 nM
COc1ccc(-c2ccnc3cc(C(=O)Nc4ccc(C(=O)N5CCN(C)CC5)nc4)nn23)cc1OC [Compound 265]	≥ 2000 nM
COc1ccc(-c2ccnc3cc(C(=O)Nc4cccc(C(=O)N5CCNCC5)c4)nn23)cc1OC [Compound 80]	≥ 2000 nM
COc1ccc(-c2ccnc3cc(C(=O)N[C@H]4CC[C@H](O)CC4)nn23)cc1OC [Compound 69]	200 to 2000 nM

The record that follows has no EC50 shown yet.
query: // lookup EC50 for COc1ccc(-c2ccnc3cc(C(=O)Nc4cccc(C(N)=O)c4)nn23)cc1OC [Compound 54]
result: 200 to 2000 nM

----------
- Study target: human wild type-CFTR (Homo sapiens)
- Test method notes: Cell-based YFP assay
- Set-up: expressed in transfected cells; host or cells: CHO-K1 (Chinese hamster ovary)
- Condition label: CHO-K1 cells expressing human wild type-CFTR and YFP-H148Q/I152L; forskolin 20 μM = 100% activity; read-out: Cell-based YFP Assay (EC50) Concentration Range
pEC50: −log10 of the molar value.
Metric: pEC50

COc1ccc(-c2ccnc3cc(C(=O)NC45CC(C(=O)N6CCN(C(=O)OC(C)(C)C)CC6)(C4)C5)nn23)cc1OC	> 6.70
COc1ccc(-c2ccnc3cc(NC(=O)Nc4ccc(C(=O)N5CCOCC5)cc4)nn23)cc1OC	5.70 to 6.70
COc1ccc(-c2ccnc3cc(C(=O)Nc4ccc(C(=O)OCCCN5CCCC5)cc4)nn23)cc1OC	≤ 5.70
CCOC(=O)N1CCN(C(=O)c2cc3nccc(-c4ccc(OC)c(OC)c4)n3n2)CC1 [Compound 111]	5.70 to 6.70
COc1ccc(-c2ccnc3cc(C(=O)N[C@H]4CC[C@H](C(=O)N5CCN(C)CC5)CC4)nn23)cc1OC	≤ 5.70

query: // lookup pEC50 for `CCOc1ccc(NC(=O)c2cc3ncc(-c4ccc(OC)c(OC)c4)cn3n2)cc1`
result: ≤ 5.70

query: // lookup pEC50 for `COc1ccc(-c2ccnc3cc(C(=O)Nc4ccc(C(=O)N5CCN(C)CC5)cc4C)nn23)cc1OC`
result: > 6.70

query: // lookup pEC50 for `CCOc1ccc(NC(=O)c2cc3nccc(-c4ccc(N(C)C)cc4)n3n2)cc1`
result: ≤ 5.70

query: // lookup pEC50 for `COc1ccc(-c2ccnc3cc(C(=O)NC45CCC(C(=O)OCCCN6CCOCC6)(CC4)CC5)nn23)cc1OC`
result: > 6.70

query: // lookup pEC50 for `COc1ccc(-c2ccnc3cc(C(=O)Nc4ccc(OC(=O)[C@@H](N)C(C)C)cc4)nn23)cc1OC`
result: > 6.70

query: // lookup pEC50 for `COc1ccc(-c2ccnc3cc(C(=O)N4CCNC5(CC5)C4)nn23)cc1OC`
result: 5.70 to 6.70

query: // lookup pEC50 for `COc1ccc(-c2ccnc3cc(C(=O)Nc4ccc(C(=O)N5CCN(C)CC5)cc4Cl)nn23)cc1OC`
result: 5.70 to 6.70

query: // lookup pEC50 for `COc1ccc(-c2ccnc3cc(C(=O)NC4CCN(C(=O)OC(C)(C)C)CC4)nn23)cc1OC`
result: 5.70 to 6.70

query: // lookup pEC50 for `COc1ccc(-c2ccnc3cc(C(=O)N4CC[C@H](O)C4)nn23)cc1OC`
result: ≤ 5.70

query: // lookup pEC50 for `CCOc1ccc(NC(=O)c2cc3nccc(-c4ccc(F)c(F)c4)n3n2)cc1`
result: ≤ 5.70

query: // lookup pEC50 for `COc1ccc(-c2ccnc3cc(C(=O)N4C[C@H](C)NC[C@H]4C)nn23)cc1OC`
result: 5.70 to 6.70
